Test system: BRCA2 Knockout DLD-1 cells
method-description: Inhibition of proliferation of BRCA2 Knockout DLD-1 cells (CellTiter-Glo)
Assay type: cell-based
condition-label: Homo sapiens, about 144 hours
quantity-name: IC50 (nM)
# value in nM; strip the unit string

[in] I'm curious: which IC50 was measured for CCc1cc2ncc(CN3CC=C(c4ccc(C(=O)NCC(F)(F)F)nc4)CC3)cc2[nH]c1=O [Example 20] tested on BRCA2 Knockout DLD-1 cells?
[out] 1.4

[in] Requested read-out IC50, target or system BRCA2 Knockout DLD-1 cells, entry CCc1cc2ncc(CN3CC=C(c4ccc(C(=O)NOC)nc4)CC3)cc2[nH]c1=O [Example 3]
[out] 3.2

[in] Give the reported IC50 for CNC(=O)c1ccc(C2=CCN(Cc3cnc4cc(C(F)(F)F)c(=O)[nH]c4c3)CC2)cn1 [Example 21] (system: BRCA2 Knockout DLD-1 cells).
[out] 5.1

[in] # query: IC50 | item CCc1cc2ncc(CN3CC=C(c4ccc(C(=O)NC)nc4Cl)CC3)cc2[nH]c1=O [Example 13] | system: BRCA2 Knockout DLD-1 cells
[out] 1

[in] Reported IC50 for BRCA2 Knockout DLD-1 cells, given CCc1cc2ncc(CN3CC=C(c4ccc(C(=O)NCC#N)nc4)CC3)cc2[nH]c1=O [Example 15] ?
[out] 2.4

[in] GET /values?readout=IC50&system=BRCA2 Knockout DLD-1 cells&item= CCc1cc2ncc(CN3CC=C(c4ccc(C(=O)NC5(C#N)CC5)nc4)CC3)cc2[nH]c1=O [Example 16]
[out] 2.7

[in] Form field: IC50 recorded for CCc1cc2ncc(CN3CCC(c4ccc(C(=O)NC)nc4)=C(F)C3)cc2[nH]c1=O [Example 19] with BRCA2 Knockout DLD-1 cells (enter value)
[out] 1.5
